So I've got a bunch of substances here, and I need their amyloid nucleation score values.
Test: amyloid nucleation score (Sup35N fusion, yeast selection) (log enrichment); library NNK1; higher = more nucleation; inactive = no reads after selection;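 note: zero at mode of non-aggregating sequences after 7 days selection at 30°C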
No unit in the answer, only the number.

Query :: Need amyloid nucleation score, item DNSRIYLCGSLNCFYFSDVL
Result :: 7.66

Query :: Need amyloid nucleation score, item ILYVNNFIFLH
Result :: 7.59

Query :: Need amyloid nucleation score, item NLTHARGVSSVQRGVMSRTG
Result :: -0.747

Query :: Need amyloid nucleation score, item WLRRCEGGKMSYSSLSTVES
Result :: -0.563

Query :: Need amyloid nucleation score, item IKDTGYYLHMIEQPDTLNLW
Result :: 0.651

Query :: Need amyloid nucleation score, item VIVQKSLS
Result :: -0.086

Query :: Need amyloid nucleation score, item GTFALIN
Result :: -1.2

Query :: Need amyloid nucleation score, item KSQVVMRDVEPATNIV
Result :: -0.153

Query :: Need amyloid nucleation score, item QFRGLDLCLRIRRLVAYTGI
Result :: 0.285

Query :: Need amyloid nucleation score, item VGLFVFSMSLGLAD
Result :: -1.55

Query :: Need amyloid nucleation score, item KYVCGLTDTVIRGMLKVIRA
Result :: 0.559

Query :: Need amyloid nucleation score, item LPWGRTAFENFFVTMFFSKC
Result :: -0.994

Query :: Need amyloid nucleation score, item VMSGRCFTRCAFGLQRVPSV
Result :: 0.033

Query :: Need amyloid nucleation score, item GRVKINKNLSVYKYINFRDS
Result :: 2.04

Query :: Need amyloid nucleation score, item YSCGGSDSWGTTNSNLGFRH
Result :: -0.751
